Test system: NCI-H522 lung
Assay Explanation: NCI tumour cell line growth inhibition, 48 h
Each item that follows carries a reported TGI.
Assay Readout: TGI (µM)

CN(C(=O)Cc1cc(Cl)c(Cl)cc1NC(=O)CCCN)[C@H]1CCCC[C@@H]1N1CCCC1 : 29.8
C=C(C)[C@@H]1CC[C@]2(C(=O)OC)CC[C@]3(C)[C@H](CC[C@@H]4[C@@](C)(CCc5nn[nH]n5)[C@H](C(=C)C)CC[C@]43C)[C@@H]12 : 51.5
Cc1cc(C)c2c(c1)CSCc1cc(C)cc(C)c1-2 : 48
CCCCCCCCCCCC1=NC(C)(C)CN1C(C)C : 10.8
O=C(c1ccccc1)c1nc2ccc(Cl)cc2cc1C(Br)Br : 3.68
O=c1[nH]c(=O)n(Cc2ccc(C34CC5CC(CC(C5)C3)C4)c(O)c2)cc1F : 31.9
CN1CCC2(CC1)C(=O)Nc1cc(NC(=O)c3ccc4c(c3)C[C@@H]3C(C)(C)[C@H](O)[C@H](F)C[C@@]3(C)O4)ccc12 : 33.2
O=C1CC(Nc2ccccc2)c2c(Cl)sc(Cl)c21 (stereo not given) : 0.315
CC(=O)Oc1ccc2c(c1)O/C(=C\c1ccc(N(C)C)cc1)C2=O : 66.2
